# experimental-system: BTK enzyme (recombinant full-length BTK, hBTK) (Homo sapiens)
# Construct: recombinant protein from baculovirus-transfected Sf9 cells: full-length BTK, 6HIS-tag cleaved; 6HIS (cleaved yes); made in house; host or cells: baculovirus-transfected Sf9 cells
# assay-explanation: BTK enzyme activity assay, LANCE TR-FRET
# Type: biochemical
# run-conditions: 50 pM hBTK, 2 μM biotin-A5-peptide, 25 μM ATP; 60 min compound & enzyme incubation; read-out: IC50 BTK activity value
property-measured: IC50 (nM)

As a guide, the following entries are already answered.
{"input-smiles": "CCOc1cc(C(=O)Nc2cc(C(F)(F)F)n(C)n2)c(F)cc1-c1nc([C@@H]2CC[C@H]3CCC(=O)N3C2)n2ccnc(N)c12", "IC50 (nM)": 1.3}
{"input-smiles": "Nc1ncc(C(F)(F)F)n2c([C@@H]3CC[C@H]4CCC(=O)N4C3)nc(-c3ccc(C(=O)Nc4cc(C(F)(F)F)ccn4)cc3Cl)c12", "IC50 (nM)": 9}
{"input-smiles": "COc1cc(C(=O)Nc2cc(C(F)(F)F)ccn2)ccc1-c1nc([C@@H]2CC[C@H]3CCC(=O)N3C2)n2c(Cl)cnc(N)c12", "IC50 (nM)": 0.22}
{"input-smiles": "Nc1nccn2c([C@@H]3CC[C@H]4CCC(=O)N4C3)nc(-c3ccc(C(=O)Nc4cc(C5CC5)ccn4)cc3)c12", "IC50 (nM)": 0.18}

1. COc1cccc(NC(=O)c2ccc(-c3nc([C@@H]4CC[C@H]5CCC(=O)N5C4)n4ccnc(N)c34)cc2)n1
2. Cc1c(C(F)(F)F)ccnc1NC(=O)c1ccc(-c2nc([C@@H]3CC[C@H]4CCC(=O)N4C3)n3ccnc(N)c23)cc1
In: IC50 comparison. Which is larger, 1 or 2 ? Indicate which entry you chose by stating its label.
Out: 1
(1: 81.2 nM, 2: 12.4 nM)

---

# experimental-system: BTK enzyme (recombinant full-length BTK, hBTK) (Homo sapiens)
# Construct: recombinant protein from baculovirus-transfected Sf9 cells: full-length BTK, 6HIS-tag cleaved; 6HIS (cleaved yes); made in house; host or cells: baculovirus-transfected Sf9 cells
# assay-explanation: BTK enzyme activity assay, LANCE TR-FRET
# Format: biochemical
# run-conditions: 50 pM hBTK, 2 μM biotin-A5-peptide, 25 μM ATP; 60 min compound & enzyme incubation; read-out: IC50 BTK activity value
property-measured: IC50 (nM)

{"input-smiles": "Nc1nccn2c([C@@H]3CC[C@H]4CCC(=O)N4C3)nc(-c3ccc(C(=O)Nc4cc(C5(F)COC5)ccn4)cc3)c12", "unit-name": "nM", "IC50": 1.9}
{"input-smiles": "N#Cc1ccnc(NC(=O)c2ccc(-c3nc([C@@H]4CC[C@H]5CCC(=O)N5C4)n4ccnc(N)c34)c(F)c2)c1", "unit-name": "nM", "IC50": 0.21}
{"input-smiles": "N#Cc1ccnc(NC(=O)c2ccc(-c3nc([C@@H]4CC[C@H]5CCC(=O)N5C4)n4ccnc(N)c34)cc2F)c1", "unit-name": "nM", "IC50": 2.5}
{"input-smiles": "COc1ccnc(NC(=O)c2ccc(-c3nc([C@@H]4CC[C@H]5CCC(=O)N5C4)n4c(Cl)cnc(N)c34)c(OC)c2)c1", "unit-name": "nM", "IC50": 1.6}
{"input-smiles": "C[C@H]1OC[C@@H]2CC[C@@H](c3nc(-c4ccc(C(=O)Nc5cc(C(F)(F)F)ccn5)cc4)c4c(N)nccn34)CN2C1=O", "unit-name": "nM", "IC50": 0.13}
{"input-smiles": "COc1cc(C(=O)Nc2cc(C(F)(F)F)ccn2)c(F)cc1-c1nc([C@@H]2CC[C@H]3CCC(=O)N3C2)n2ccnc(N)c12", "unit-name": "nM", "IC50": 2.5}
{"input-smiles": "Nc1nccn2c([C@@H]3CC[C@H]4CCC(=O)N4C3)nc(-c3ccc(C(=O)Nc4cc(C(F)(F)F)ccn4)cc3OC(F)F)c12", "unit-name": "nM", "IC50": 0.48}
{"input-smiles": "Nc1nccn2c([C@H]3CC[C@@H]4CCOC(=O)N4C3)nc(-c3ccc(C(=O)Nc4cc(C(F)(F)F)ccn4)cc3)c12", "unit-name": "nM", "IC50": 2.6}

A. Cc1cc(C(F)(F)F)cc(NC(=O)c2ccc(-c3nc([C@@H]4CC[C@H]5CCC(=O)N5C4)n4ccnc(N)c34)cc2)n1
B. CCOc1cc(C(=O)Nc2cc(C(F)(F)F)n(C)n2)ccc1-c1nc([C@@H]2CC[C@H]3CCC(=O)N3C2)n2c(F)cnc(N)c12
In: Input pair: A , B . Output: entry with lower IC50. Kindly give the label for the entry you pick.
Out: B
(B: 3.1 nM, A: 4.8 nM)

---

# System: HeLa cells
# assay-explanation: [3H]Adenosine uptake functional cellular assay
# Format: cell-based
# run-conditions: Homo sapiens, HeLa, accumulation of [3H]adenosine into HeLa cells; compound range 10 μM to […]; read-out: Adenosine uptake inhibition IC50
pIC50: −log10 of the molar value.
property-measured: pIC50

{"compound": "Nc1nccn2c([C@@H]3CC[C@H]4CCC(=O)N4C3)nc(-c3ccc(C(=O)Nc4cc(C(F)(F)F)n(C5CCCC5)n4)cc3)c12 [Example 180]", "test-value": 6.64}

A. CCOc1cc(C(=O)Nc2ncc(C)s2)ccc1-c1nc([C@@H]2CC[C@H]3CCC(=O)N3C2)n2ccnc(N)c12 [Example 159]
B. C[C@@H]1OC(=O)N2C[C@H](c3nc(-c4ccc(C(=O)Nc5cc(C6CC6)ccn5)cc4)c4c(N)nccn34)CC[C@@H]12 [Example 46]
C. Nc1nccn2c([C@@H]3CC[C@H]4CN(C(=O)c5ccncc5)CC(=O)N4C3)nc(-c3ccc(C(=O)Nc4cc(C(F)(F)F)ccn4)cc3)c12 [Example 102]
D. Nc1nccn2c([C@@H]3CC[C@H]4CCC(=O)N4C3)nc(-c3ccc(C(=O)Nc4cc(C(F)(F)F)ccn4)cc3F)c12 [Example 23]
In: Please rank these compounds by pIC50 in descending order. Returns: the labels arranged in the requested order.
Out: D, B, C, A

a. CC(=O)Oc1cc(C(=O)Nc2cc(C(F)(F)F)ccn2)ccc1-c1nc([C@@H]2CC[C@H]3CCC(=O)N3C2)n2ccnc(N)c12 [Example 155]
b. CC(C)(O)c1ccnc(NC(=O)c2ccc(-c3nc([C@@H]4CC[C@H]5CCC(=O)N5C4)n4ccnc(N)c34)cc2)c1 [Example 98]
In: Of a and b , whose reported pIC50 is the larger number? Your answer should be the label of the entry you select.
Out: a

1. CCOc1cc(C(=O)Nc2cc(C(F)(F)F)n(C)n2)c(F)cc1-c1nc([C@@H]2CC[C@H]3CCC(=O)N3C2)n2c(Cl)cnc(N)c12 [Example 115]
2. Nc1nccn2c([C@H]3CC[C@@H]4CCOC(=O)N4C3)nc(-c3ccc(C(=O)Nc4cc(C(F)(F)F)ccn4)cc3)c12 [Example 93]
In: Pick one, 1 or 2 : lowest reported pIC50. Answer = label.
Out: 1

A. Nc1nccn2c([C@@H]3CC[C@H]4CCC(=O)N4C3)nc(-c3ccc(C(=O)Nc4cc(C(F)(F)F)ccn4)cc3O)c12 [Example 118]
B. C[C@@H]1OC(=O)N2C[C@H](c3nc(-c4ccc(C(=O)Nc5cc(C(F)(F)F)ccn5)cc4F)c4c(N)nccn34)CC[C@@H]12 [Example 33]
C. Nc1nccn2c([C@@H]3CC[C@H]4C[C@H](O)C(=O)N4C3)nc(-c3ccc(C(=O)Nc4cc(C(F)(F)F)ccn4)cc3)c12 [Example 68]
In: Descending sort on pIC50 required. Put the labels in the requested order and list them out.
Out: B, C, A
(B: 7.04, C: 6.37, A: 6.08)

---

# experimental-system: BTK enzyme (recombinant full-length BTK, hBTK) (Homo sapiens, UniProt Q06187)
# Construct: recombinant protein from baculovirus-transfected Sf9 cells: full-length BTK, 6HIS-tag cleaved; 6HIS (cleaved yes); made in house; host or cells: baculovirus-transfected Sf9 cells
# Sequence (Q06187 whole entry): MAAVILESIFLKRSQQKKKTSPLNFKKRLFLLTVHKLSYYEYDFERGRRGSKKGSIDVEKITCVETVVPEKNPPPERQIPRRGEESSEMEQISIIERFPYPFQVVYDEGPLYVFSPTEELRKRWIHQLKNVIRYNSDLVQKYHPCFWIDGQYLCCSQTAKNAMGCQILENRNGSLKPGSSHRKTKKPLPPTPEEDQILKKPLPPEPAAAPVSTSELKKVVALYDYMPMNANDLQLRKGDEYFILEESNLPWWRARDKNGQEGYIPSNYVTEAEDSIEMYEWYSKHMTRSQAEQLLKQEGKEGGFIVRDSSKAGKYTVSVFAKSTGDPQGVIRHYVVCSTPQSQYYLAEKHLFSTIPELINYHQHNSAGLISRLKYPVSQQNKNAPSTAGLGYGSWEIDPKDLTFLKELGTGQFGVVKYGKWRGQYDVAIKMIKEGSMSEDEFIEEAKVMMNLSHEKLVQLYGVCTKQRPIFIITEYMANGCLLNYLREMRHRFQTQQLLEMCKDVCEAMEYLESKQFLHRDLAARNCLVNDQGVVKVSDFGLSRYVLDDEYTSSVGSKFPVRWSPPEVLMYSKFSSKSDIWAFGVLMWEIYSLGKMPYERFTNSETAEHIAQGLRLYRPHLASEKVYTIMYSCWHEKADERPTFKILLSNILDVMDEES
# assay-explanation: BTK enzyme activity assay, LANCE TR-FRET
# Format: biochemical
# run-conditions: 50 pM hBTK, 2 μM biotin-A5-peptide, 25 μM ATP; 60 min compound & enzyme incubation; read-out: IC50 BTK activity value
pIC50: −log10 of the molar value.
property-measured: pIC50

# count of solved cases: 2
{"compound": "Nc1nccn2c([C@H]3CC[C@@H]4CNCC(=O)N4C3)nc(-c3ccc(C(=O)Nc4cc(C(F)(F)F)ccn4)cc3)c12 [Example 41]", "property-measured": "pIC50", "test-value": 8.40}
{"compound": "CCOc1cc(C(=O)Nc2cc(C(F)(F)F)ccn2)ccc1-c1nc([C@@H]2CC[C@H]3CCC(=O)N3C2)n2c(F)cnc(N)c12 [Example 161]", "property-measured": "pIC50", "test-value": 9.00}

A. Nc1ncc(C(F)(F)F)n2c([C@@H]3CC[C@H]4CCC(=O)N4C3)nc(-c3ccc(C(=O)Nc4cc(C5CC5)ccn4)cc3F)c12 [Example 212]
B. Nc1nccn2c([C@@H]3CC[C@H]4COC(=O)N4C3)nc(-c3ccc(C(=O)Nc4cc(C(F)(F)F)ccn4)cc3F)c12 [Example 12]
In: Between the two listed entries A and B , which has its pIC50 at the higher number? Use the label to indicate which entry you chose.
Out: B
(B: 10.08, A: 8.42)

a. CCc1ccnc(NC(=O)c2ccc(-c3nc([C@@H]4CC[C@H]5CCC(=O)N5C4)n4c(Cl)cnc(N)c34)c(OC)c2)c1 [Example 207]
b. CC(C)Oc1cc(C(=O)Nc2cc(C(F)(F)F)ccn2)ccc1-c1nc([C@@H]2CC[C@H]3CCC(=O)N3C2)n2ccnc(N)c12 [Example 139]
c. COCCN(C(=O)c1ccc(-c2nc([C@@H]3CC[C@H]4CCC(=O)N4C3)n3ccnc(N)c23)c(O)c1)c1cc(C(F)(F)F)ccn1 [Example 157]
d. CC(C)(C)COc1cc(C(=O)Nc2cc(C(F)(F)F)ccn2)ccc1-c1nc([C@@H]2CC[C@H]3CCC(=O)N3C2)n2ccnc(N)c12 [Example 142]
In: List by increasing pIC50. Form field (ranking): labels in requested order.
Out: c, d, b, a

a. CCc1ccnc(NC(=O)c2ccc(-c3nc([C@@H]4CC[C@H]5CCC(=O)N5C4)n4ccnc(N)c34)cc2)c1 [Example 18]
b. Cn1nc(NC(=O)c2ccc(-c3nc([C@@H]4CC[C@H]5CCC(=O)N5C4)n4ccnc(N)c34)cc2)cc1C1CC1 [Example 181]
In: Returns: the argument ( a or b ) having the larger pIC50. Write down the label attached to your selection.
Out: a
(a: 9.80, b: 9.03)

I. COC(=O)CN1CC(=O)N2C[C@H](c3nc(-c4ccc(C(=O)Nc5cc(C(F)(F)F)ccn5)cc4)c4c(N)nccn34)CC[C@H]2C1 [Example 82]
II. Cn1nc(NC(=O)c2ccc(-c3nc([C@@H]4CC[C@H]5CCC(=O)N5C4)n4ccnc(N)c34)cc2)cc1C(F)(F)F [Example 171]
In: Form field 'greater pIC50' accepts I or II ; which applies? // respond with label for picked entry
Out: I
(I: 9.72, II: 9.39)

A. Nc1nccn2c([C@@H]3CC[C@H]4CCC(=O)N4C3)nc(-c3ccc(C(=O)Nc4cc(C(F)(F)F)ccn4)cc3Cl)c12 [Example 112]
B. Nc1nccn2c([C@@H]3CC[C@H]4COCC(=O)N4C3)nc(-c3ccc(C(=O)Nc4cc(C(F)(F)F)ccn4)cc3F)c12 [Example 39]
C. CN1C[C@@H]2CC[C@@H](c3nc(-c4ccc(C(=O)Nc5cc(C(F)(F)F)ccn5)cc4)c4c(N)nccn34)CN2C1=O [Example 3]
D. Nc1nccn2c([C@@H]3CC[C@H]4CCC(=O)N4C3)nc(-c3ccc(C(=O)Nc4cc(OC5CC5)ccn4)cc3)c12 [Example 5]
In: Order the records, beginning with the lowest pIC50 and ending with the highest. Give the labels in the order requested.
Out: C, A, D, B
(C: 8.14, A: 9.24, D: 9.62, B: 9.92)

A. COc1cc(C(=O)Nc2cc(C(F)(F)F)ccn2)c(F)cc1-c1nc([C@@H]2CC[C@H]3CCC(=O)N3C2)n2c(Cl)cnc(N)c12 [Example 132]
B. Nc1nccn2c([C@@H]3CC[C@H]4CCC(=O)N4C3)nc(-c3ccc(C(=O)Nc4ncc[nH]4)cc3)c12 [Example 172]
In: For the pair A and B , which entry has the numerically smaller recorded pIC50? Pick one and reply with its label.
Out: B

P. Nc1nccn2c([C@@H]3CC[C@H]4CCC(=O)N4C3)nc(-c3ccc(C(=O)Nc4ccccn4)cc3)c12 [Example 6]
Q. C[C@@H]1OC(=O)N2C[C@H](c3nc(-c4ccc(C(=O)Nc5cc(C(F)(F)F)ccn5)cc4F)c4c(N)nccn34)CC[C@@H]12 [Example 33]
In: Returns the identifier with the smallest measured pIC50 among P and Q . # respond with the chosen item's label
Out: P
(P: 8.70, Q: 9.77)

I. CN1CC[C@H]2CC[C@@H](c3nc(-c4ccc(C(=O)Nc5cc(C(F)(F)F)ccn5)cc4)c4c(N)nccn34)CN2C1=O [Example 111]
II. CCOc1cc(C(=O)Nc2ncc(C)s2)ccc1-c1nc([C@@H]2CC[C@H]3CCC(=O)N3C2)n2c(Cl)cnc(N)c12 [Example 158]
In: Which numeric pIC50 is bigger, that of I or that of II ? Could you answer with the label of the item you picked?
Out: II
